Kp at 6 h values by entry
- ASSAY INFO: Ratio of drug level in brain to plasma of Sprague-Dawley rat at 10 mg/kg, po measured at 6 hrs
- Assay type: ADME, organism-based
- RECORDED CONDITIONS: brain and plasma, read-out: BPR

Record summary for "Cc1cn2cc(-c3cc4ccc(N5CCN(C)CC5)cc4c(=O)o3)nc2c(C)n1" : reported Kp at 6 h = 11

Record summary for "CCN1CCN(c2ccc3cc(-c4cn5cc(C)nc(C)c5n4)c(=O)oc3c2)C[C@@H]1C" : reported Kp at 6 h = 19

Record summary for "Cc1cn2nc(-c3cc(=O)n4cc(N5CCN(C)CC5)ccc4n3)cc2c(C)n1" : reported Kp at 6 h = 1.6

Record summary for "Cc1cn2cc(-c3cc4ccc(N5CCNCC5)cc4oc3=O)nc2c(C)n1" : reported Kp at 6 h = 6.5

More entries:
Record summary for "Cc1cn2nc(-c3cc(=O)n4cc(N5CCNCC5)ccc4n3)cc2c(C)n1" : reported Kp at 6 h = < 0.1

Record summary for "Cc1cn2cc(-c3cc4ccc(N5CCN(C)CC5)cc4oc3=O)nc2c(C)n1" : reported Kp at 6 h = 0.7

Record summary for "Cc1cn2cc(-c3cc4ccc(N5CCN(C)[C@@H](C)C5)cc4oc3=O)nc2c(C)n1" : reported Kp at 6 h = 19

Record summary for "Cc1cn2cc(-c3cc4ccc(N5CCNCC5)cc4c(=O)o3)nc2c(C)n1" : reported Kp at 6 h = 0.6

====

- Species: Homo sapiens
- ASSAY INFO: Inhibition of mRNA splicing of SMN2 exon 7 in GM03813 fibroblasts derived from SMA patient assessed as compound concentration required to increase SMN protein level by 1.5 times after 24 hrs by HTRF assay
EC1.5 values by entry
Your answer should be a plain number; it is taken to be in nM.

Recorded EC1.5, per entry:
Record summary for "Cc1cn2cc(-c3cc4ccc(N5CCN[C@@H](C(C)C)C5)cc4oc3=O)nc2c(C)n1" : reported EC1.5 = 76

Record summary for "Cc1cn2cc(-c3cc(=O)n4cc(N5CCNCC5)ccc4n3)nc2c(C)n1" : reported EC1.5 = 430

Record summary for "Cc1cn2cc(-c3cc4ccc(N5CCN6CCC[C@H]6C5)cc4oc3=O)nc2c(C)n1" : reported EC1.5 = 66

More entries:
Record summary for "COc1ccc(-c2cc3ccc(N4CCNCC4)cc3c(=O)o2)cc1OC" : reported EC1.5 = 290

Record summary for "Cc1ccc2nc(-c3cc4ccc(N5CCNCC5)cc4oc3=O)cn2c1" : reported EC1.5 = 160

Record summary for "COc1ccc(-c2cc(=O)n3cc(N4CCNCC4)ccc3c2)cc1OC" : reported EC1.5 = 2500

Record summary for "Cc1cn2nc(-c3cc(=O)n4cc(N5CCN[C@H](C)C5)ccc4n3)cc2c(C)n1" : reported EC1.5 = 71

====

- ASSAY INFO: Protein binding in human plasma
- Format: ADME, cell-free
- RECORDED CONDITIONS: read-out: PPB (converted)
fraction unbound values by entry
Field format: numeric only.

Recorded fraction unbound, per entry:
Record summary for "Cc1cn2cc(-c3cc4ccc(N5CCN(C)CC5)cc4c(=O)o3)nc2c(C)n1" : reported fraction unbound = 0.07

Record summary for "CCN1CCN(c2ccc3cc(-c4cn5cc(C)nc(C)c5n4)c(=O)oc3c2)C[C@@H]1C" : reported fraction unbound = 0.04

Record summary for "Cc1cn2cc(-c3cc4ccc(N5CCN(C)CC5)cc4oc3=O)nc2cn1" : reported fraction unbound = 0.03

Record summary for "Cc1cn2nc(-c3cc(=O)n4cc(N5CCN(C)CC5)ccc4n3)cc2c(C)n1" : reported fraction unbound = 0.2

Record summary for "Cc1cn2cc(-c3cc4ccc(N5CCNCC5)cc4c(=O)o3)nc2c(C)n1" : reported fraction unbound = 0.1

More entries:
Record summary for "Cc1cn2cc(-c3cc4ccc(N5CCN(C)CC5)cc4oc3=O)nc2c(C)n1" : reported fraction unbound = 0.03

Record summary for "Cc1cn2nc(-c3cc(=O)n4cc(N5CCNCC5)ccc4n3)cc2c(C)n1" : reported fraction unbound = 0.3
